Answer each item with its documented protein stability index.
B1: DUSP5 (parent)
chain: YSEYPECCVDVKPISQEKIESERA

Variants of: B1
protocol.details: protein stability index of a GFP-peptide fusion (GPS, HEK-293T) (PSI 1-6); higher = more stable;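 further: lentivirally expressed fusions sorted by FACS into six bins by GFP to DsRed ratio, PSI derived from sequencing read proportions per bin multiplied by bin number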
condition.label: c terminus: a fixed tail appended
Answer with the value's number alone.

q: Form field: reported protein stability index of D10W
a: 1.74

q: Please do the same for S15K as well.
a: 3.68

q: Let us now turn to E3N
a: 4.62

q: Field entry: S21V
a: 4.36

q: // same read-out, input: E17H
a: 3.82

q: Likewise for V11Y ?
a: 3.4

q: Next variant up: S21N
a: 3.73

q: Now the variant E20F
a: 3.56

q: Same read-out for A24L ?
a: 4.26

q: How about this variant: S21M
a: 3.72

q: // same read-out, input: R23V
a: 3.88

q: What do you have for C7Q ?
a: 5.35

q: Okay, and I14Y ?
a: 3.84

q: Thanks! And C7Y ?
a: 2.02

q: Again, but for P5L
a: 4.28

q: Try K12D next.
a: 4.46

q: Follow-up item: C8W
a: 1.32

q: And the next one, E17D ?
a: 3.75

q: // repeat for P13I and report
a: 3.69

q: Consider next the variant E3I in the same way.
a: 4.17

q: Thanks! And S21P ?
a: 4.29

q: Same thing, different variant: I19H
a: 3.01

q: Same for A24K
a: 3.82

q: And then I14S , what is it?
a: 4.4

q: Here is the next variant: V9P
a: 4.24

q: Same thing, different variant: Y1N
a: 5.6

q: Also check R23P
a: 4.55

q: Now consider V9H .
a: 4.39

q: Please do the same for I14R as well.
a: 3.45

q: What do you get for V11T ?
a: 3.95

q: R23L , same question.
a: 4.18

q: Consider next the variant K18V in the same way.
a: 4.16

q: # iterate: K18G
a: 3.39

q: Now consider I14N .
a: 3.31

q: Next record, please: S21G
a: 3.8

q: Subsequent entry: P5I
a: 3.96

q: And then E17P , what is it?
a: 4.37

q: # iterate: P13T
a: 4.18

q: # repeat for E20N
a: 3.6

q: Then this variant: Y1R
a: 5.62

q: Item: V11C
a: 3.38

q: For Y4V then?
a: 5.67

q: Same thing, different variant: C7A
a: 4.16

q: Let us now turn to I19P
a: 4.02

q: Now consider S15V and answer again.
a: 3.96

q: Same thing, different variant: S2W
a: 4.44

Each recorded value in this set is attributed to the supplement of paper PMC10567573.
